Target chain: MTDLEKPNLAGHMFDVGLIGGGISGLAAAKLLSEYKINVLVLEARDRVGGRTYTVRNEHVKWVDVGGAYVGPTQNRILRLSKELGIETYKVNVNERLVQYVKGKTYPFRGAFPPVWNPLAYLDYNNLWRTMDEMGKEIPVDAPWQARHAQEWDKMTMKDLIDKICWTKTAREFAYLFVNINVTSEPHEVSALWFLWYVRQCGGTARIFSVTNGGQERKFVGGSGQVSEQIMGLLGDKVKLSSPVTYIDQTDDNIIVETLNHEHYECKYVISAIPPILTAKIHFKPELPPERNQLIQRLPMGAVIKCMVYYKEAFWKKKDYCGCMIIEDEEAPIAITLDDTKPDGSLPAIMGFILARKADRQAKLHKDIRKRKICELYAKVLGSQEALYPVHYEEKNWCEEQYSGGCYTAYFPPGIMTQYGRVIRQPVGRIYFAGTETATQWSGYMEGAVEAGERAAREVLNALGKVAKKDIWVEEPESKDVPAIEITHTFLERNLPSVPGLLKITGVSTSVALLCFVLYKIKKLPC
pIC50: −log10 of the molar value. Counter-ions that a name gives are not always drawn.
// label = YES if pIC50 is not less than 6, otherwise NO

Asked: Could you please find out whether CCCCCCc1ccc2c(c1)SC1=NCCN12 has pIC50 that meets 6 or exceeds it?
Given back: YES

Asked: Could you please find out whether Oc1ccc2c(c1)SC1=NCCN12 [Example 7-OH, monohydrobromide] has pIC50 that meets 6 or exceeds it?
Given back: NO

Asked: Could you please find out whether CCCc1ccc2c(c1)SC1=NC(c3ccccc3)CN12 (stereo not shown) has pIC50 that meets 6 or exceeds it?
Given back: NO

Asked: Could you please find out whether c1ccc(Oc2ccc3c(c2)SC2=NCCN23)cc1 has pIC50 that meets 6 or exceeds it?
Given back: YES

Asked: Could you please find out whether CCNc1ccc2c(c1)N1CCN=C1S2 has pIC50 that meets 6 or exceeds it?
Given back: YES

Asked: Could you please find out whether Clc1ccc(CNc2ccc3c(c2)N2CCN=C2S3)cc1 has pIC50 that meets 6 or exceeds it?
Given back: YES

Asked: Could you please find out whether COc1ccc2c(c1)SC1=NCCN12 has pIC50 that meets 6 or exceeds it?
Given back: YES

Asked: Could you please find out whether O=C(c1ccccc1)c1ccc2c(c1)N1CCN=C1S2 [6-COC6 H5, monohydrochloride] has pIC50 that meets 6 or exceeds it?
Given back: YES

Asked: Could you please find out whether COc1cc(CNc2ccc3c(c2)SC2=NCCN23)cc(OC)c1OC [7-NHCH2 [3,4,5-(OCH3)3C6 H2]] has pIC50 that meets 6 or exceeds it?
Given back: NO

Asked: Could you please find out whether CCC(CC)Nc1ccc2c(c1)N1CCN=C1S2 has pIC50 that meets 6 or exceeds it?
Given back: YES

----------
- targetDesc: monoamine oxidase (type B enzyme, β-phenylethylamine substrate) (Rattus norvegicus)
- Sequence (P19643 whole entry): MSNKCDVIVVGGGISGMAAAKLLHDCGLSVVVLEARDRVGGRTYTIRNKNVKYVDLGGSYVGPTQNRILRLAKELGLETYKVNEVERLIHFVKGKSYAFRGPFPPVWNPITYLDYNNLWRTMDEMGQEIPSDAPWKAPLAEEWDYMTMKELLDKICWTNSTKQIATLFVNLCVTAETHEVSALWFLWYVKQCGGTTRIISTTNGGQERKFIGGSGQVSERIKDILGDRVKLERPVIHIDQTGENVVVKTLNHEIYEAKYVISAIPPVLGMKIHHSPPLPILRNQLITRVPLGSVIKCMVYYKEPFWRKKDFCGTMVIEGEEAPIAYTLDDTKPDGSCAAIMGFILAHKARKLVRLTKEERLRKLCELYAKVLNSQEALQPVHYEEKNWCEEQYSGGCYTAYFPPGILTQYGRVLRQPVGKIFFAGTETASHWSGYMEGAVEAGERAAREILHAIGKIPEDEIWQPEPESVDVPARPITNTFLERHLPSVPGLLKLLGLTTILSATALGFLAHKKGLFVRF
- assayOverview: in-vitro monoamine oxidase inhibition, [14C]phenylethylamine hydrochloride as substrate
- Type: biochemical
- particulars: Table 2; monoamine oxidase extract of Wistar rat tissue, pH 7.4, 37° C., 20 minutes; read-out: I.C.50-value using as substrate [14C]phenylethylamine hydrochloride
propertyMeasured: pIC50
Please keep in mind that pIC50 is minus log10 of the molar concentration; only the number is needed.

Asked: Let me know recorded pIC50 for CCCCCCN(C=C(C(=O)OCC)C(=O)OCC)c1ccc2c(c1)SC1=[N+](CCCCCC)CCN12 , thanks.
Given back: 5.74
